- Test system: 885724-159-R-J1-PDC KRAS PDC multicell spheroid viability;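 also: spheroids exposed to agents for 7 days before readout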
- MEASUREMENT PROTOCOL: Anticancer human tumor 885724-159-R-J1-PDC patient-derived pancreatic adenocarcinoma cell line growth inhibition [KRAS2]
- CONDITION: second compound 1 µM; first compound 0.01 µM; hits give low values
PROPERTY NAME: viability, T/C (%)

INSERT INTO assay_data (molecule, property_name, value) VALUES
  ('CCN1CCN(Cc2ccc(Nc3ncc(F)c(-c4cc(F)c5nc(C)n(C(C)C)c5c4)n3)nc2)CC1 + CNCc1ccccc1-c1csc(C(C)Nc2nc(C)nc3cc(OC)c(OC)cc23)c1', 'viability, T/C', 96.3),
  ('CC(=O)OC12COC1CC(O)C1(C)C(=O)C(O)C3=C(C)C(OC(=O)C(O)C(NC(=O)OC(C)(C)C)c4ccccc4)CC(O)(C(OC(=O)c4ccccc4)C21)C3(C)C (stereo not given) + C=CC(=O)N1CCN(c2nc(OCC3CCCN3C)nc3c2CCN(c2cccc4cccc(C)c24)C3)CC1CC#N', 'viability, T/C', 82.6),
  ('CN(C)C/C=C/C(=O)Nc1cc2c(Nc3ccc(F)c(Cl)c3)ncnc2cc1O[C@H]1CCOC1 + CNCc1ccccc1-c1csc(C(C)Nc2nc(C)nc3cc(OC)c(OC)cc23)c1', 'viability, T/C', 83.1),
  ('CC1COCCN1c1cc(-c2ccnn2C)c2ccnc(-c3ccn[nH]3)c2n1 (stereo not given) + C=CC(=O)N1CCN(c2nc(=O)n(-c3c(C)ccnc3C(C)C)c3nc(-c4c(O)cccc4F)c(F)cc23)C(C)C1', 'viability, T/C', 106),
  ('CC(=O)OC12COC1CC(O)C1(C)C(=O)C(O)C3=C(C)C(OC(=O)C(O)C(NC(=O)OC(C)(C)C)c4ccccc4)CC(O)(C(OC(=O)c4ccccc4)C21)C3(C)C (stereo not given) + CC1OCC2(CCN(c3cnc(Sc4ccnc(N)c4Cl)c(N)n3)CC2)C1N', 'viability, T/C', 112),
  ('CN(C)C/C=C/C(=O)Nc1cc2c(Nc3ccc(F)c(Cl)c3)ncnc2cc1O[C@H]1CCOC1 + CC1OCC2(CCN(c3cnc(Sc4ccnc(N)c4Cl)c(N)n3)CC2)C1N', 'viability, T/C', 121),
  ('Cn1ncnc1[C@H]1c2n[nH]c(=O)c3cc(F)cc(c23)N[C@@H]1c1ccc(F)cc1 + CNCc1ccccc1-c1csc(C(C)Nc2nc(C)nc3cc(OC)c(OC)cc23)c1', 'viability, T/C', 78.5),
  ('CC(=O)OC12COC1CC(O)C1(C)C(=O)C(O)C3=C(C)C(OC(=O)C(O)C(NC(=O)OC(C)(C)C)c4ccccc4)CC(O)(C(OC(=O)c4ccccc4)C21)C3(C)C (stereo not given) + COc1cc2nc(C)nc(NC(C)c3cc(N)cc(C(F)(F)F)c3)c2cc1OC1CCOC1', 'viability, T/C', 104),
  ('CN(C)C/C=C/C(=O)Nc1cc2c(Nc3ccc(F)c(Cl)c3)ncnc2cc1O[C@H]1CCOC1 + C=CC(=O)N1CCN(c2nc(OCC3CCCN3C)nc3c2CCN(c2cccc4cccc(C)c24)C3)CC1CC#N', 'viability, T/C', 78.4),
  ('CCN1CCN(Cc2ccc(Nc3ncc(F)c(-c4cc(F)c5nc(C)n(C(C)C)c5c4)n3)nc2)CC1 + COc1cc2nc(C)nc(NC(C)c3cc(N)cc(C(F)(F)F)c3)c2cc1OC1CCOC1', 'viability, T/C', 86.9);
